Attribution: PubChem BioAssay (NCI)

- System: SK-MEL-5 melanoma
- Test description: NCI-60 one-dose screen, 48 h
- Settings: 10 µM unless noted
About 83,000 compounds went through this panel and 20% of them were active in at least one assay; those are over-represented in the sample as a whole. The source made the active and inactive calls. Rule for the calls: active = growth percent below 10; inactive = the rest.
Respond using exactly one of the listed classes: active, inactive

- Compound: "CC(NC(=O)CCl)c1ccccc1 (stereo not given)"
  Assay system: "SK-MEL-5 melanoma"
  Class name: "inactive"
- Compound: "NNC(=O)Nc1ccccc1"
  Assay system: "SK-MEL-5 melanoma"
  Class name: "inactive"
- Compound: "O=C(O)Cc1cc(=O)[nH]n(-c2ccccc2)c1=O"
  Assay system: "SK-MEL-5 melanoma"
  Class name: "inactive"
- Compound: "COc1ccc(CCO)cc1"
  Assay system: "SK-MEL-5 melanoma"
  Class name: "inactive"

Record lookup: outcome of this test for COc1ccc(/C=N/NC(N)=S)cc1 ? inactive

Record lookup: outcome of this test for COc1ccc2nccc(Cl)c2c1 ? inactive

Record lookup: outcome of this test for COc1ccc(CCl)c(C)c1OC ? inactive

Record lookup: outcome of this test for COC(=O)c1ccccc1Cl ? inactive

Record lookup: outcome of this test for CCOC(=N)c1ccc(C(=N)OCC)cc1 ? inactive

Record lookup: outcome of this test for Nc1ccc(Cl)c(S(=O)(=O)O)c1 ? inactive

Record lookup: outcome of this test for S=c1nn[nH]n1C1CCCCC1 ? inactive

Record lookup: outcome of this test for CCN(CC)Cc1cc2[nH]c3c4ccc(Cl)cc4ncc3c2cc1OC ? active

Record lookup: outcome of this test for CCNCc1ccccc1 ? inactive

Record lookup: outcome of this test for CC(=O)Nc1ccc2oc(=O)ccc2c1 ? inactive

Record lookup: outcome of this test for COCCNC(C)=O ? inactive
